Molecular target: T1, Gadd45β/MKK7 complex (biotin-hGadd45β with coated GST-MKK7, ELISA format) (human) (UniProt O75293)
T1 sequence (biotinylated (sites not stated), looked up) 1: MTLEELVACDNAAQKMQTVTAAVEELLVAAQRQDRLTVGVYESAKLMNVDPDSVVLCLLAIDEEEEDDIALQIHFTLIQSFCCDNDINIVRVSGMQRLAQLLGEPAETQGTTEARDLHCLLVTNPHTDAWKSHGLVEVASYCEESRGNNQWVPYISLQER
T1 sequence (biotinylated (sites not stated), looked up) 2: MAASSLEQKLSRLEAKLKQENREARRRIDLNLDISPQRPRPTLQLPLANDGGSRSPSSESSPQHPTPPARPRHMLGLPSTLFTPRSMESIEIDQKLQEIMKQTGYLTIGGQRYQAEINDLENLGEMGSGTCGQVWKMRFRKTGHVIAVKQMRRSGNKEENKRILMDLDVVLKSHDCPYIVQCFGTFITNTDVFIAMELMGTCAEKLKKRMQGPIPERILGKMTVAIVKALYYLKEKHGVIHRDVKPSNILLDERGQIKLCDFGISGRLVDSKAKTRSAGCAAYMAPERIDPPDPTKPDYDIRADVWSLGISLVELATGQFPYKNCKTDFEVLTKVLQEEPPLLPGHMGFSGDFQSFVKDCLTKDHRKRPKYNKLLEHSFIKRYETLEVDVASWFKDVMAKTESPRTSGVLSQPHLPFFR
Test: competition ELISA; coated GST-MKK7 42 nM, biotin-hGadd45β 21 nM
Square brackets hold non-standard residues; d marks the D form. * marks the point of attachment. Cbz = O=C(OCc1ccccc1)*
Metric: pIC50
Reminder that pIC50 is minus the log10 of a molar concentration.

Cbz-[dY][dD][dH][dF]-NH2 [Z-Tyr-Asp-His-Phe-NH2 (Z-DTP1)] ... 9.66

# return recorded pIC50 for entry Cbz-[dY][dE][dR][dF]-NH2 [Z-DTP2 (Z-D-Tyr-D-Glu-D-Arg-D-Phe-NH2)]
9.72

The measured values listed here are drawn from patent US20120277164A1.
